Origin of values: patent US12102638B2

assay: single rising oral dose Phase 1 pharmacokinetics in healthy subjects; type: in vivo, human; settings: male, human, plasma, oral, 50 mg, single 50 mg, healthy young males
recorded-endpoint: Cmax
A complete answer gives the number followed by the unit.

query: // returns reported Cmax for input O=C(Nc1ccc(C[C@@H]2CC[C@H]([C@H](O)c3ccccc3)N2)cc1)[C@@H]1CCc2nccc(=O)n21
result: 31.7 ng/mL

* * *

assay: multiple rising dose Phase 1 pharmacokinetics in healthy subjects; assay type: in vivo, human; details: male, human, plasma, oral, 100 mg, multiple dose 100 mg, after 14 days, healthy young males, Japanese; read-out: Ctrough
recorded-endpoint: concentration at 14 days (ng/mL)
Respond numerically; units are ng/mL and should not be typed.

query: // returns reported concentration at 14 days for input O=C(Nc1ccc(C[C@@H]2CC[C@H]([C@H](O)c3ccccc3)N2)cc1)[C@@H]1CCc2nccc(=O)n21
result: 41
